- Target Of Assay: T1, human MSLN-R1-his protein (human, UniProt Q13421 296-390)
- T1 construct: Region 1 of human mesothelin, made in HEK293E cells, His-tagged; also called human MSLN-R1 protein; hMSLN-R1-his; not shown: His tag
- T1 chain: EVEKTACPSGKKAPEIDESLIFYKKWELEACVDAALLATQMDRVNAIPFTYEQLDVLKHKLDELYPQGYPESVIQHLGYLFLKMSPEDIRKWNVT
- Assay Name: ELISA on coated MSLN-R1; antibody 100 nM
Listing: OD450 of selected binders
Express your answer in OD450, writing the number without its unit.

1) S009-F8-36.12 (antibody, human IgG1, kappa, V domains shown) VH: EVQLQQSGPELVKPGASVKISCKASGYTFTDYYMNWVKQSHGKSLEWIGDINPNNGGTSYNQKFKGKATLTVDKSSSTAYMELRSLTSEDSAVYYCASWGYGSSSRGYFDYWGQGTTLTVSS VL: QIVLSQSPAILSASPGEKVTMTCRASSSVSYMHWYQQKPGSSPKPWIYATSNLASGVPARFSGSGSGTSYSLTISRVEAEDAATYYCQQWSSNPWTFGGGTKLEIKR; 0.05
2) S009-F8-31.22 (antibody, human IgG1, kappa, V domains shown) VH: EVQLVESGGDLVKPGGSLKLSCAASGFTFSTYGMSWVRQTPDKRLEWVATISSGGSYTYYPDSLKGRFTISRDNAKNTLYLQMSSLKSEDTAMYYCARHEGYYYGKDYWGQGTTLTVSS VL: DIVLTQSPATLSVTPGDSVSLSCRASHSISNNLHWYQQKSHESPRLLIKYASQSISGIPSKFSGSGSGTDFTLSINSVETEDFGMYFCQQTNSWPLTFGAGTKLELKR; 2.12

// query For the binder S009-F8-13.8 (antibody, human IgG1, kappa, V domains shown) VH: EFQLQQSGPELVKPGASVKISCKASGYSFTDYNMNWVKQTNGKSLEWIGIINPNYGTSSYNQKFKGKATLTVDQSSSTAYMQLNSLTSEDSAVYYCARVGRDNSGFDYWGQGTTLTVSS VL: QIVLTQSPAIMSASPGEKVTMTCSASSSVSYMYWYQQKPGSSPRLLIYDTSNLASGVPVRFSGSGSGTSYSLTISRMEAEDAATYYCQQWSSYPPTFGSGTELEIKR , give its reported OD450.
// result 2.35

Data provenance: patent US20250250357A1
